- TESTED SYSTEM: Peptidyl-prolyl cis-trans isomerase FKBP1A (Homo sapiens, UniProt P62942)
- Sequence (P62942 whole entry): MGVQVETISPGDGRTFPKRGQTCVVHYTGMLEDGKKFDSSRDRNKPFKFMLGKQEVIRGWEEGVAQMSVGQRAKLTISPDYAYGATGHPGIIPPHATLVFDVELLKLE
- EXPERIMENT: Antagonist activity at human FKBP12 measured after 30 mins by fluorescein labelled SLF tracer based fluorescence polarization assay
pIC50: −log10 of the molar value.
PROPERTY LABEL: pIC50

Example molecules with recorded pIC50:
- MOLECULE: "CO[C@H]1C[C@@H](C)C/C(C)=C/[C@@H](CC(=O)N2CCN(C)CC2)C(=O)C[C@H](O)[C@@H](C)[C@@H](/C(C)=C/[C@@H]2CC[C@@H](O)[C@H](OC)C2)OC(=O)[C@@H]2CCCCN2C(=O)C(=O)[C@]2(O)O[C@H]1[C@@H](OC)C[C@H]2C"
  TESTED SYSTEM: "Peptidyl-prolyl cis-trans isomerase FKBP1A (Homo sapiens, UniProt P62942)"
  OBSERVED: 7.90
- MOLECULE: "CC[C@@H]1/C=C(\\C)C[C@H](C)C[C@H](OC)[C@H]2O[C@@](O)(C(=O)C(=O)N3CCCC[C@H]3C(=O)O[C@H](/C(C)=C/[C@@H]3CC[C@@H](OC(=O)N4CCN(C)CC4)[C@H](OC)C3)[C@H](C)[C@@H](O)CC1=O)[C@H](C)C[C@@H]2OC"
  TESTED SYSTEM: "Peptidyl-prolyl cis-trans isomerase FKBP1A (Homo sapiens, UniProt P62942)"
  OBSERVED: 7.96
- MOLECULE: "CO[C@H]1C[C@@H](C)C/C(C)=C/[C@@H](CCCC(=O)N2CC(O)C2)C(=O)C[C@H](O)[C@@H](C)[C@@H](/C(C)=C/[C@@H]2CC[C@@H](O)[C@H](OC)C2)OC(=O)[C@@H]2CCCCN2C(=O)C(=O)[C@]2(O)O[C@H]1[C@@H](OC)C[C@H]2C"
  TESTED SYSTEM: "Peptidyl-prolyl cis-trans isomerase FKBP1A (Homo sapiens, UniProt P62942)"
  OBSERVED: 7.90
- MOLECULE: "CC[C@@H]1/C=C(\\C)C(O)[C@H](C)C[C@H](OC)[C@H]2O[C@@](O)(C(=O)C(=O)N3CCCC[C@H]3C(=O)O[C@H](/C(C)=C/[C@@H]3CC[C@@H](O)[C@H](OC)C3)[C@H](C)[C@@H](O)CC1=O)[C@H](C)C[C@@H]2OC (stereo partly drawn)"
  TESTED SYSTEM: "Peptidyl-prolyl cis-trans isomerase FKBP1A (Homo sapiens, UniProt P62942)"
  OBSERVED: 8.17
- MOLECULE: "CO[C@H]1C[C@@H](C)C/C(C)=C/[C@@H](CCCC(=O)N2CCN(C)CC2)C(=O)C[C@H](O)[C@@H](C)[C@@H](/C(C)=C/[C@@H]2CC[C@@H](OCCO)[C@H](OC)C2)OC(=O)[C@@H]2CCCCN2C(=O)C(=O)[C@]2(O)O[C@H]1[C@@H](OC)C[C@H]2C"
  TESTED SYSTEM: "Peptidyl-prolyl cis-trans isomerase FKBP1A (Homo sapiens, UniProt P62942)"
  OBSERVED: 7.72
- MOLECULE: "CO[C@H]1C[C@@H](C)C/C(C)=C/[C@@H](CCN(C)C)C(=O)C[C@H](O)[C@@H](C)[C@@H](/C(C)=C/[C@@H]2CC[C@@H](O)[C@H](OC)C2)OC(=O)[C@@H]2CCCCN2C(=O)C(=O)[C@]2(O)O[C@H]1[C@@H](OC)C[C@H]2C"
  TESTED SYSTEM: "Peptidyl-prolyl cis-trans isomerase FKBP1A (Homo sapiens, UniProt P62942)"
  OBSERVED: 7.72

a: CO[C@H]1C[C@@H](C)C/C(C)=C/[C@@H](CC(=O)N2CCCC2)C(=O)C[C@H](O)[C@@H](C)[C@@H](/C(C)=C/[C@@H]2CC[C@@H](O)[C@H](OC)C2)OC(=O)[C@@H]2CCCCN2C(=O)C(=O)[C@]2(O)O[C@H]1[C@@H](OC)C[C@H]2C
b: CO[C@H]1C[C@@H](C)C/C(C)=C/[C@@H](CCCC(=O)N2CCN(Cc3ccccn3)CC2)C(=O)C[C@H](O)[C@@H](C)[C@@H](/C(C)=C/[C@@H]2CC[C@@H](O)[C@H](OC)C2)OC(=O)[C@@H]2CCCCN2C(=O)C(=O)[C@]2(O)O[C@H]1[C@@H](OC)C[C@H]2C
# input Of a versus b , which is the one with smaller reported pIC50? Refer to your chosen item by its label in the answer.
# output a
